Target: HigB;HigA (Streptococcus pneumoniae …, UniProt A0A0H2UQ08;A0A0H2UQ20 1-121;1-97, |)
Assay: ITC; n=0.53; ITC: 50 mM MES pH 6.0, 100 mM NaCl, 25 C; […]
Conditions: protein: recombinant;recombinant; chain copies: 2;2; blunt
PROPERTY_MEASURED: Kd (nM)
Record the value in nM, omitting the unit from your answer.

State the recorded Kd for this entry: Pal-I (dsDNA) DNA 1: AGCATCTAGGAAACTAGGTGCT DNA 2: AGCACCTAGTTTCCTAGATGCT
460
